assay: reduction of polyQ htt aggregates in cells – imaging, exon1htt(103Q)mCFP cells, high-content imaging, primary screen (AID 483); settings: exon1htt(103Q)mCFP cell line, aggregate imaging, at 2 µM; stronger effect = higher value;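 note: compound exposure lasted 3 days before fixation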
assay.readout: inhibition of aggregation (%)

>>> obs_value("CCOC(=O)c1sc(NC(=O)CSc2nnnn2-c2ccccc2)c(C(=O)OCC)c1C")
12.5
>>> obs_value("C=CCSc1nnc(-c2cccnc2)o1")
13.3
>>> obs_value("O=C(Nc1cccc(F)c1)c1ccc2c(c1)OCO2")
31.8
>>> obs_value("COC(=O)Cc1cc(=O)n(-c2ccccc2)[nH]1")
-18.2
>>> obs_value("Cc1ccc(CN2CCN(C(=O)C3CCC3)CC2)cc1")
23.3
>>> obs_value("COc1ccccc1N1CCN(C(=O)CSc2nc3ncnc(N)c3[nH]2)CC1")
-0.2
>>> obs_value("O=C(CSc1nc(-c2ccc(F)cc2)cs1)N1CCOCC1")
20.5
>>> obs_value("Cc1cc(C)cc(NS(=O)(=O)c2ccc3[nH]c(=O)[nH]c3c2)c1")
2.4
>>> obs_value("COc1ccccc1N1CCN(C(=O)c2cc(-c3ccc(Cl)c(Cl)c3)on2)CC1")
-5.8
>>> obs_value("CCCC(=O)Nc1ccc(NC(=O)c2cccs2)cn1")
10.4
>>> obs_value("Cc1nc2c(=O)oc3ccccc3c2n1-c1ccccc1")
30.6
>>> obs_value("COc1cccc(OCc2nnc(SCC(=O)OCc3ccccc3)o2)c1")
1.6
>>> obs_value("CCOC(=O)N1CCN(C(=O)CN(Cc2ccccc2)S(=O)(=O)c2ccc(OC)c(C)c2)CC1")
1.8
>>> obs_value("COc1ccc(-n2c(COc3cccc(C)c3)nnc2SCC(=O)NCc2ccco2)cc1")
5.1
>>> obs_value("CCOC(=O)N1CCN(C(=O)C2c3cc(OC)c(OC)cc3C(=O)N3CCc4ccccc4C23)CC1 (centres undefined)")
13.5
>>> obs_value("CCCC(=O)Nc1ccc(NC(=O)c2ccccc2OC)cn1")
18.8
>>> obs_value("O=C(CCN1CCOCC1)Nc1cccc(Br)c1")
-9.3
>>> obs_value("COc1cccc(CN2C(=O)C3(C(C#N)=C(N)OC4=C3C(=O)CCC4)c3ccccc32)c1 (centres undefined)")
-11.5
>>> obs_value("CCOC(=O)c1c(NC(=O)CSc2nc3c(c(=O)n(C)c(=O)n3C)n2C(C)C)sc(C)c1C")
17.1

====

biological target: Voltage-gated potassium channel subunit beta-2 (Rattus norvegicus) (UniProt P62483); experiment: inhibitors of rat Kvbeta2 reductase activity – biochemical, NADPH fluorescence, primary screen (AID 622); settings: recombinant KvBeta, 4-cyanobenzaldehyde reduction, at 10 µM, stronger effect = higher value;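 note: slope of raw intensity against log time taken from 70 to 1610 s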
Sequence (P62483 whole entry, looked up): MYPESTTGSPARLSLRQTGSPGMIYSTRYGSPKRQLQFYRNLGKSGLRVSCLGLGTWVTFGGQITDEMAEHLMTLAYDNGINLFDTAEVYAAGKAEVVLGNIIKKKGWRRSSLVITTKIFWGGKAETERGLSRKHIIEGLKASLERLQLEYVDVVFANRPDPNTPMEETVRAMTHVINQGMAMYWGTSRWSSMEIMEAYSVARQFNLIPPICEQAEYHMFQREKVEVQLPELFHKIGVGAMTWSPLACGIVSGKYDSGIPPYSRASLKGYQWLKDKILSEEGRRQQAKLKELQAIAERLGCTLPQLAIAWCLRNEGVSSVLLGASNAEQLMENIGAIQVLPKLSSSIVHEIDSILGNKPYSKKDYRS
Form field: fluorescence slope (one value per entry).
assay.readout: fluorescence slope

>>> obs_value("C=CCc1ccccc1OCC(O)CN1CCN(Cc2ccc3c(c2)OCO3)CC1 (stereo unspecified)")
-0.457
>>> obs_value("CCOC(=O)c1c(COC(=O)c2ccco2)nc2ccccc2[n+]1[O-]")
-0.392
>>> obs_value("COc1ccccc1NC(=O)C1CC(=O)N(c2ccc(F)cc2)C1 (stereo unspecified)")
-0.583
>>> obs_value("CCNS(=O)(=O)c1ccc(S(=O)(=O)N(Cc2ccccn2)C2CCCCC2)cc1")
-0.348
>>> obs_value("CC(C)N(Cc1nc(-c2ccccc2)no1)C(=O)CCCN1C(=O)c2ccccc2C1=O")
-0.53
>>> obs_value("COc1nc(-c2ccc(Cl)cc2)ccc1-c1noc(-c2ccncc2)n1")
-0.223
>>> obs_value("Cc1nnc(NC(=O)CSc2nnc(-c3ccc(S(=O)(=O)N4CCCC4)cc3)n2C)s1")
-0.495
>>> obs_value("CCCCN(CCCC)CCCNC(=O)CC1Oc2ccc(C)cc2NC1=O (stereo unspecified)")
-0.242
>>> obs_value("Nc1nnc(-c2cc3ccccc3oc2=O)s1")
-0.0269
>>> obs_value("CCOc1cc(C)c(C(C)C)cc1S(=O)(=O)N1CCN(C)CC1")
-0.475
>>> obs_value("Cc1ccc2ncnc(NCCCN3CCOCC3)c2c1")
-0.484
